The reported numbers originate from paper PMC9025810.

- Test protocol: Venetoclax plasma pharmacokinetics in wild-type, CYP3A(−/−) and OATP1B2(−/−) mice
- Type: in vivo
- Settings: female, FVB, mouse, plasma, po, 10 mg/kg, Table S1: wild-type FVB, female, N=5, venetoclax 10 mg/kg PO, no co-treatment; mean (SE); read-out: Venetoclax AUC(0-last)
- Description: […]
Observation type: AUC(0-t) (ng·h/mL)
Enter your answer as a number in ng·h/mL; do not include the unit.

IN: Entry under review: CC1(C)CCC(CN2CCN(c3ccc(C(=O)NS(=O)(=O)c4ccc(NCC5CCOCC5)c([N+](=O)[O-])c4)c(Oc4cnc5[nH]ccc5c4)c3)CC2)=C(c2ccc(Cl)cc2)C1 . Reported AUC(0-t)?
OUT: 7430

---

- Test protocol: Venetoclax plasma pharmacokinetics in wild-type, CYP3A(−/−) and OATP1B2(−/−) mice
- Type: in vivo
- Settings: female, FVB.129P2 CYP3A(−/−), mouse, plasma, po, 10 mg/kg, CYP3A(−/−), venetoclax 10 mg/kg PO, co-treatment PEG 400 (vehicle); mean (SE)
Observation type: Cmax (ng/mL)
Give the value, in units of ng/mL, as a plain number.

IN: Give the measured Cmax of CC1(C)CCC(CN2CCN(c3ccc(C(=O)NS(=O)(=O)c4ccc(NCC5CCOCC5)c([N+](=O)[O-])c4)c(Oc4cnc5[nH]ccc5c4)c3)CC2)=C(c2ccc(Cl)cc2)C1 .
OUT: 1570

---

- Test protocol: Venetoclax plasma pharmacokinetics in wild-type, CYP3A(−/−) and OATP1B2(−/−) mice
- Assay type: in vivo
- Settings: female, OATP1B2(−/−), mouse, plasma, po, 10 mg/kg, n=10, venetoclax 10 mg/kg PO, no co-treatment; mean (SE)
Observation type: Cmax (µg/mL)
Return type: number; implicit unit µg/mL.

IN: What measured Cmax goes with CC1(C)CCC(CN2CCN(c3ccc(C(=O)NS(=O)(=O)c4ccc(NCC5CCOCC5)c([N+](=O)[O-])c4)c(Oc4cnc5[nH]ccc5c4)c3)CC2)=C(c2ccc(Cl)cc2)C1 ?
OUT: 1.07

---

- Test protocol: Venetoclax plasma pharmacokinetics in wild-type, CYP3A(−/−) and OATP1B2(−/−) mice
- Type: in vivo
- Settings: female, FVB.129P2 CYP3A(−/−), mouse, plasma, po, CYP3A(−/−), female, venetoclax 10 mg/kg PO 30 min after micafungin 100 mg/kg IV; mean (SE); read-out: Venetoclax AUC(0–8h)
Observation type: AUC(0-t) (ng·h/mL)
Write it as a number; the unit ng·h/mL goes unstated.

IN: AUC(0-t) for CC1(C)CCC(CN2CCN(c3ccc(C(=O)NS(=O)(=O)c4ccc(NCC5CCOCC5)c([N+](=O)[O-])c4)c(Oc4cnc5[nH]ccc5c4)c3)CC2)=C(c2ccc(Cl)cc2)C1 [Venetoclax] ?
OUT: 13600

---

- Test protocol: Venetoclax plasma pharmacokinetics in wild-type, CYP3A(−/−) and OATP1B2(−/−) mice
- Assay type: in vivo
- Settings: female, FVB, mouse, plasma, po, 10 mg/kg, wild-type FVB, female, venetoclax 10 mg/kg PO 30 min after ketoconazole 50 mg/kg PO; mean (SE)
Observation type: Cmax (ng/mL)
Respond numerically; units are ng/mL and should not be typed.

IN: I have this compound here, CC1(C)CCC(CN2CCN(c3ccc(C(=O)NS(=O)(=O)c4ccc(NCC5CCOCC5)c([N+](=O)[O-])c4)c(Oc4cnc5[nH]ccc5c4)c3)CC2)=C(c2ccc(Cl)cc2)C1 , and I need its recorded Cmax.
OUT: 3080

---

- Target under test: UniProt:Q9Y6L6
- Sequence (Q9Y6L6 1-691): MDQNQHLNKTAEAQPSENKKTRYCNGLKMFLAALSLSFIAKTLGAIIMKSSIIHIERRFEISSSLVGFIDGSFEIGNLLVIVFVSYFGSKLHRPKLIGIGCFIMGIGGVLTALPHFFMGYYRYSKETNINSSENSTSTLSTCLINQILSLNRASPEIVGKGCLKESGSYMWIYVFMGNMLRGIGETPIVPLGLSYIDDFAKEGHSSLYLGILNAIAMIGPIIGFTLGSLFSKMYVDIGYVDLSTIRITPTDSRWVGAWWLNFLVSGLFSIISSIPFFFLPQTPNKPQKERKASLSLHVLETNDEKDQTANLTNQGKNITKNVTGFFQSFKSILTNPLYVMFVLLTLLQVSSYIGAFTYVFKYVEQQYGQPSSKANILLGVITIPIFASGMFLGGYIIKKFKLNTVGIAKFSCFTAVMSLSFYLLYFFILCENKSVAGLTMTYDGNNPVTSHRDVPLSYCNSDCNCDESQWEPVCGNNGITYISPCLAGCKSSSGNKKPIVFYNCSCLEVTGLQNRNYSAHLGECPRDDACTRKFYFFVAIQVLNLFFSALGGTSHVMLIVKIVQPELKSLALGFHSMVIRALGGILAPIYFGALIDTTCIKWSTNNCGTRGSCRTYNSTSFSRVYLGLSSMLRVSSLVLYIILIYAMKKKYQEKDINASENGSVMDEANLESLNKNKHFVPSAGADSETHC
- Test protocol: Inhibition of OATP1B1-mediated [3H]EβG uptake in HEK293 cells
- Settings: read-out: OATP1B1 IC50; HEK293 cells, 0.2 µM EβG, 15 min pre-incubation + 15 min co-incubation
Observation type: IC50 (µM)
Field: numeric (µM). Do not append units.

IN: Could you share which IC50 value was measured for CC(=O)C(C)n1ncn(-c2ccc(N3CCN(c4ccc(OC[C@H]5CO[C@](Cn6cncn6)(c6ccc(Cl)cc6Cl)O5)cc4)CC3)cc2)c1=O (stereo partly shown) ?
OUT: 8.3

---

- Test protocol: Venetoclax plasma pharmacokinetics in wild-type, CYP3A(−/−) and OATP1B2(−/−) mice
- Assay type: in vivo
- Settings: female, FVB.129P2 CYP3A(−/−), mouse, plasma, po, 10 mg/kg, CYP3A(−/−), venetoclax 10 mg/kg PO, co-treatment None (control of micafungin experiment); mean (SE)
Observation type: Cmax (ng/mL)
Report as a plain number; the unit ng/mL is understood.

IN: Dear colleague, I am looking for the recorded Cmax of the following compound: CC1(C)CCC(CN2CCN(c3ccc(C(=O)NS(=O)(=O)c4ccc(NCC5CCOCC5)c([N+](=O)[O-])c4)c(Oc4cnc5[nH]ccc5c4)c3)CC2)=C(c2ccc(Cl)cc2)C1 [Venetoclax]
OUT: 1830

---

- Test protocol: Venetoclax plasma pharmacokinetics in wild-type, CYP3A(−/−) and OATP1B2(−/−) mice
- Type: in vivo
- Settings: male, OATP1B2(-/-), mouse, plasma, po, 10 mg/kg, Table S1: OATP1B2(-/-), male, venetoclax 10 mg/kg PO, no co-treatment; mean (SE); read-out: Venetoclax AUC(0-last)
Observation type: AUC(0-t)

IN: Name the reported AUC(0-t) value associated with the compound CC1(C)CCC(CN2CCN(c3ccc(C(=O)NS(=O)(=O)c4ccc(NCC5CCOCC5)c([N+](=O)[O-])c4)c(Oc4cnc5[nH]ccc5c4)c3)CC2)=C(c2ccc(Cl)cc2)C1
OUT: 9200 ng·h/mL

---

- Test protocol: Venetoclax plasma pharmacokinetics in wild-type, CYP3A(−/−) and OATP1B2(−/−) mice
- Assay type: in vivo
- Settings: female, FVB, mouse, plasma, po, 10 mg/kg, wild-type FVB, venetoclax 10 mg/kg PO, co-treatment PEG400 (vehicle); mean (SE)
Observation type: Cmax (ng/mL)
Note: unit ng/mL is implicit; provide only the numeric part.

IN: Look up Cmax for this compound: CC1(C)CCC(CN2CCN(c3ccc(C(=O)NS(=O)(=O)c4ccc(NCC5CCOCC5)c([N+](=O)[O-])c4)c(Oc4cnc5[nH]ccc5c4)c3)CC2)=C(c2ccc(Cl)cc2)C1
OUT: 1030

---

- Test protocol: Venetoclax plasma pharmacokinetics in wild-type, CYP3A(−/−) and OATP1B2(−/−) mice
- Type: in vivo
- Settings: female, FVB.129P2 CYP3A(-/-), mouse, plasma, po, 10 mg/kg, Table S1: CYP3A(-/-), female, N=3, venetoclax 10 mg/kg PO, no co-treatment; mean (SE); read-out: Venetoclax AUC(0-last)
Observation type: AUC(0-t) (ng·h/mL)
Field format: number, assumed ng·h/mL, no unit text.

IN: Fill in: AUC(0-t) of CC1(C)CCC(CN2CCN(c3ccc(C(=O)NS(=O)(=O)c4ccc(NCC5CCOCC5)c([N+](=O)[O-])c4)c(Oc4cnc5[nH]ccc5c4)c3)CC2)=C(c2ccc(Cl)cc2)C1 is ___
OUT: 13700

---

- Test protocol: Venetoclax plasma pharmacokinetics in wild-type, CYP3A(−/−) and OATP1B2(−/−) mice
- Type: in vivo
- Settings: female, DBA, mouse, plasma, po, 10 mg/kg, wild-type DBA, female, n=10, venetoclax 10 mg/kg PO, no co-treatment; mean (SE); read-out: Venetoclax AUC(0–8h)
Observation type: AUC(0-t) (ng·h/mL)
Give a bare numeral; the unit ng·h/mL is implied.

IN: Can you look up the measured AUC(0-t) of CC1(C)CCC(CN2CCN(c3ccc(C(=O)NS(=O)(=O)c4ccc(NCC5CCOCC5)c([N+](=O)[O-])c4)c(Oc4cnc5[nH]ccc5c4)c3)CC2)=C(c2ccc(Cl)cc2)C1 for me?
OUT: 3210
